All figures here come from PubChem BioAssay AID248.

# Test system: L1210 leukemia ip in BDF1 mice, survival T/C
# experimental-protocol: NCI In Vivo Anticancer Drug Screen. Data for tumor model L1210 Leukemia (intraperitoneal) in B6D2F1 (BDF1) mice
# assay-context: endpoint: mean survival time; dose: 100.0 mg/kg/injection; schedule: Q01DX001 (ip); vehicle: Klucel (hydroxypropylcellulose) (HPC); higher = longer survival
Toxic doses and inconclusive results are not listed.
T/C values by entry
quantity: T/C

> print(dat)
                                   compound  quantity            result
1  c1ccc(C2=NC(c3ccccc3)C(c3ccccc3)N2)cc1 (stereo unspecified)       T/C   97 % of control
2            Cc1ccccc1N(C)C(=S)c1ccc(Cl)cc1       T/C  105 % of control
3          CCS(=O)(=O)CS(=O)(=O)c1ccc(C)cc1       T/C  103 % of control
4                       O=c1ccncn1Cc1ccccc1       T/C  100 % of control
5  O=C(NC(=O)C(Cl)Cl)Nc1ccc2c(c1)-c1ccccc1C2       T/C   87 % of control
6  C1CCC2[N-]CC3CCCCC3[N-]CC3CCCCC3[N-]CC3CCCCC3[N-]CC2C1.[Cu] (stereo unspecified)       T/C  116 % of control
